tested on: SNK-6 (IL-2 2.5 ng/mL); assay: percent inhibition of viability; higher = more inhibition; details: 72 h; 100 nM;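 note: normalised to DMSO-only wells as negative and benzethonium chloride as positive control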
Threshold check on percent inhibition of viability: strictly below 3% is Satisfied; on or above 3% is Not satisfied.

[
  {
    "compound": "CC(C)N(C[C@H]1O[C@@H](n2cnc3c(N)ncnc32)[C@H](O)[C@@H]1O)[C@H]1C[C@@H](CCc2nc3cc(C(C)(C)C)ccc3[nH]2)C1 [EPZ-5676] (max concentration tested 1000 nM)",
    "assignedClass": "Not satisfied"
  },
  {
    "compound": "C[C@]12O[C@H](C[C@]1(O)CO)n1c3ccccc3c3c4c(c5c6ccccc6n2c5c31)CNC4=O [Lestaurtinib] (max concentration tested 1000 nM)",
    "assignedClass": "Not satisfied"
  },
  {
    "compound": "NC1(c2ccc(-c3nc4ccn5c(=O)[nH]nc5c4cc3-c3ccccc3)cc2)CCC1 [MK-2206] (max concentration tested 1000 nM)",
    "assignedClass": "Satisfied"
  },
  {
    "compound": "CC(C)NC[C@@H](C(=O)N1CCN(c2ncnc3c2[C@H](C)C[C@H]3O)CC1)c1ccc(Cl)cc1 [GDC-0068] (max concentration tested 10000 nM)",
    "assignedClass": "Not satisfied"
  },
  {
    "compound": "NS(=O)(=O)OC[C@@H]1C[C@@H](n2ccc3c(N[C@H]4CCc5ccccc54)ncnc32)C[C@@H]1O [Pevonedistat] (max concentration tested 10000 nM)",
    "assignedClass": "Not satisfied"
  }
]

* * *

tested on: NK-YS (IL-2 2.5 ng/mL); experiment: drug sensitivity score (DSS) (DSS units); higher = more sensitive; extreme values may be limits of the assay; conditions: 72 h
Respond with y for drug sensitivity score values of 0.08 and above, n for values below.

[
  {
    "compound": "O=P1(NCCCl)OCCCN1CCCl (stereo not drawn) [Ifosfamide] (max concentration tested 10000 nM)",
    "assignedClass": "n"
  },
  {
    "compound": "CC[C@H](CC#N)OC(=O)N[C@@H](C)c1cccc(NC(=O)Nc2ccc(-c3cnco3)c(OC)c2)c1 [AVN944] (max concentration tested 10000 nM)",
    "assignedClass": "y"
  },
  {
    "compound": "Cc1ccc(Nc2nccc(N(C)c3ccc4c(C)n(C)nc4c3)n2)cc1S(N)(=O)=O [Pazopanib] (max concentration tested 10000 nM)",
    "assignedClass": "y"
  },
  {
    "compound": "Nc1ccccc1NC(=O)c1ccc(CNc2nccc(-c3cccnc3)n2)cc1 [Mocetinostat] (max concentration tested 10000 nM)",
    "assignedClass": "y"
  },
  {
    "compound": "N#Cc1ccc2[nH]c(O)c(-c3ccc(CN4CCOCC4)cn3)c2c1 [AZD-1080] (max concentration tested 10000 nM)",
    "assignedClass": "n"
  },
  {
    "compound": "COc1cc([C@@H]2c3cc4c(cc3[C@@H](O[C@@H]3O[C@@H]5CO[C@@H](C)O[C@H]5[C@H](O)[C@H]3O)[C@H]3COC(=O)[C@H]23)OCO4)cc(OC)c1O [Etoposide] (max concentration tested 10000 nM)",
    "assignedClass": "y"
  },
  {
    "compound": "COc1cccc2c1C(=O)c1c(O)c3c(c(O)c1C2=O)C[C@@](O)(/C(CO)=N/NC(=O)CCCCCN1C(=O)C=CC1=O)C[C@@H]3O[C@H]1C[C@H](N)[C@H](O)[C@H](C)O1 [Aldoxorubicin] (max concentration tested 1000 nM)",
    "assignedClass": "y"
  },
  {
    "compound": "CCN(CC)CCNC(=O)c1c(C)[nH]c(/C=C2\\C(=O)Nc3ccc(F)cc32)c1C [Sunitinib] (max concentration tested 1000 nM)",
    "assignedClass": "y"
  },
  {
    "compound": "CCC1(c2ccc(N)cc2)CCC(=O)NC1=O (stereo not drawn) [Aminoglutethimide] (max concentration tested 10000 nM)",
    "assignedClass": "n"
  },
  {
    "compound": "C[C@@H](C(=O)O)c1ccc(-c2ccccc2)c(F)c1 [Tarenflurbil] (max concentration tested 10000 nM)",
    "assignedClass": "n"
  },
  {
    "compound": "Cn1c(Nc2ccc(C(F)(F)F)cc2)nc2cc(Oc3ccnc(-c4ncc(C(F)(F)F)[nH]4)c3)ccc21 [RAF265] (max concentration tested 1000 nM)",
    "assignedClass": "y"
  },
  {
    "compound": "Cc1cc([C@@H](C)Nc2ccccc2C(=O)O)c2nc(N3CCOCC3)cc(=O)n2c1 [AZD-6482] (max concentration tested 2500 nM)",
    "assignedClass": "n"
  },
  {
    "compound": "C=C(c1ccc(C(=O)O)cc1)c1cc2c(cc1C)C(C)(C)CCC2(C)C [Bexarotene] (max concentration tested 10000 nM)",
    "assignedClass": "y"
  },
  {
    "compound": "C=CCn1c(=O)c2cnc(Nc3ccc(N4CCN(C)CC4)cc3)nc2n1-c1cccc(C(C)(C)O)n1 [MK1775] (max concentration tested 10000 nM)",
    "assignedClass": "y"
  },
  {
    "compound": "CCn1c(C(=O)N(C2CC2)C2CC2)cc2c3c(ncn3C)c(Nc3cc(C)n(C)n3)nc21 (max concentration tested 10000 nM)",
    "assignedClass": "y"
  },
  {
    "compound": "CN1CCN(c2nc(C3=C(c4c[nH]c5ccccc45)C(=O)NC3=O)c3ccccc3n2)CC1 [Sotrastaurin] (max concentration tested 10000 nM)",
    "assignedClass": "y"
  },
  {
    "compound": "Cc1ccc(-n2nc(C(C)(C)C)cc2NC(=O)Nc2ccc(OCCN3CCOCC3)c3ccccc23)cc1 [Doramapimod] (max concentration tested 10000 nM)",
    "assignedClass": "y"
  },
  {
    "compound": "CC/C(=C(\\c1ccccc1)c1ccc(OCCN(C)C)cc1)c1ccccc1 [Tamoxifen] (max concentration tested 10000 nM)",
    "assignedClass": "y"
  },
  {
    "compound": "CS(=O)(=O)N1CCN(Cc2cc3nc(-c4cccc5[nH]ncc45)nc(N4CCOCC4)c3s2)CC1 [Pictilisib] (max concentration tested 10000 nM)",
    "assignedClass": "y"
  },
  {
    "compound": "Cc1csc(-c2nnc(Nc3ccc(Oc4ncccc4-c4ccnc(N)n4)cc3)c3ccccc23)c1 [AMG-900] (max concentration tested 1000 nM)",
    "assignedClass": "y"
  },
  {
    "compound": "C[C@]12C=CC(=O)C=C1CC[C@@H]1[C@@H]2[C@@H](O)C[C@@]2(C)[C@H]1CC[C@]2(O)C(=O)CO [Prednisolone] (max concentration tested 10000 nM)",
    "assignedClass": "n"
  },
  {
    "compound": "Cc1c(CN2CCN(C(=O)[C@H](C)O)CC2)sc2c(N3CCOCC3)nc(-c3cnc(N)nc3)nc12 [Apitolisib] (max concentration tested 10000 nM)",
    "assignedClass": "y"
  }
]
